Target Of Assay: SARS-CoV-2 full length spike protein, V367F mutant (SARS-CoV-2, UniProt P0DTC2 14-1273)
Observable: median fold over isotype
The reply must contain the numeric value and, after it, the unit.

// known answers, use as guide
# Binder, median fold over isotype
rows = [
    ("antibody 529 (antibody, V domains shown) VH: QVQLVQSGAEVKKPGASVKVSCKASGYTFTSYGISWVRQAPGQGLEWMGWISAYNGNTNYAQKLQGRVTMTTDTSTSTAYMELRSLRSDDTAVYYCARMLIAAAGTSRDYYGMDVWGQGTTVTVSS VL: EIVLTQSPDFQSVTPKEKVTITCRASQSIGSSLHWYQQKPDQSPKLLIKYASQSFSGVPSRFSGSGSGTDFTLTINSLEAEDAATYYCHQSSSLPHTFGGGTKVEIK", "0.98 fold over isotype"),
    ("antibody 520 (antibody, V domains shown) VH: QVQLVESGGGVVQPGRSLRLSCAASGFTFSSYAMHWGRQAPGKGLEWVAVISYDGSNKYYADSVKGRFTISRDNSKNTLYLQMNSLRAEDTAVYYCARDGGSGWLLVGNWFDPWGQGTLVTVSS VL: QSALTQPASVSGSPGQSITISCTGTSSDVGGYNYVSWYQQHPGKAPKLMIYDVSNRPSGVSNRFSGSKSGNTASLTISGLQAEDEADYYCSSYTSSITLYVFGTGTKVTVL", "31.2 fold over isotype"),
    ("antibody 530 (antibody, V domains shown) VH: EVQLVESGGGLVQPGGSLRLSCAASGFTFSSYWMSWVRQAPGKGLEWVANIKQDGSEKYYVDSVKGRFTISRDNAKNSLYLQMNSLRAEDTAVYYCAREPQLWSEYYFDYWGQGTLVTVSS VL: DIQMTQSPSSLSASVGDRVTITCRASQGISSWLAWYQQKPEKAPKSLIYAASSLQSGVPSRFSGSGSGTDFTLTISSLQPEDFATYYCQQYNSYPPTFGQGTRLEIK", "8.39 fold over isotype"),
    ("antibody 552 (antibody, V domains shown) VH: QVQLVQSGAEVKKPGSSVKVSCKASGGTFSSYGISWVRQAPGQGLEWMGRIIPILGIANYAQKFQGRVTITADKSTSTAYMELSSLRSEDTAVYYCARAVYAAGDDDYYYYYGMDVWGQGTTVTVSS VL: SYELTQPPSVSVSPGQTARITCSGDALPKQYAYWYQQKPGQAPVVVIYKDSDRPSGIPERFSGSSSGTTVTLTISGVQAEDEADYYCQSADSSGTYQVFGTGTKVSVL", "13.2 fold over isotype"),
    ("antibody 528 (antibody, V domains shown) VH: QVQLVQSGAEVKKPGSSVKVSCKASGGTFNSNSISWVRQAPGQGLEWMGRIIPILDITMYARKFQGRVTISADKSTGTAYMDLSSLRSEDTAVYYCATDRDDSSGDYYYGMDVWGQGTTVTVSS VL: DIQMTQSPSSLSASVGDRVTITCRASLSISNYLNWYQQKPGKAPNLLIYAASTLQSGVPSRFSGSGSGTDFTLTISSLQPEDFATYYCQQTYITRWTFGQGTKVEIK", "31.2 fold over isotype"),
]

From here, focus on the item given below.
Data request: // lookup median fold over isotype for antibody 559 (antibody, V domains shown) VH: QVQLQESGPGLVKLSETLSLTCTVSGYSISSGYYWGWIRQPPGKGLEWIGSIYHSGSTYYNPSLKSRVTISVDTSKNQFSLKLSSVTAADTAVYYCAREETLGSSWYESYIDYWGQGTLVTVSS VL: SYVLTQPPSVSVAPGKTARITCGGNNIGSKSVHWYQQKPGQAPVLVIYYDSDRPSGIPERFSGSNSGNTATLTISRVEAGDEADYYCQVWDSSSDHPRVFGGGTKLTVL
Data returned: 25.4 fold over isotype
